Reported Fold change in binding relative to BKO-4A8 values for the following binders.
Molecular target: T1, human CXCR2 (human, UniProt P25025 1-360)
T1 construct: also called CXC chemokine receptor 2; hCXCR2
T1 sequence: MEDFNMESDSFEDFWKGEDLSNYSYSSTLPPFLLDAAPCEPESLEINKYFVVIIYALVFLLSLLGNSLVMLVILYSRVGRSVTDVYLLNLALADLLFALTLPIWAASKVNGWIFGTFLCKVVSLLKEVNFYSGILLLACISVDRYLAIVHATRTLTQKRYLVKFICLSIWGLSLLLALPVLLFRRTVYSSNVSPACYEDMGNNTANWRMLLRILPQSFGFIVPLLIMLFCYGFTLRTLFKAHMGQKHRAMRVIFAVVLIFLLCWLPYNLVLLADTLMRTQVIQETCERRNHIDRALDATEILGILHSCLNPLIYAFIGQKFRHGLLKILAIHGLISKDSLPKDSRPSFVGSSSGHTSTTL
Assay: flow cytometry, CXCR2-transfected Expi293F cells
Give just the numeric value; fold need not be written.

BKO-4A8 variant VL V97A (antibody, human IgG4 S228P, lambda, V domains shown, IgG4 S228P, lambda; parental heavy chain; also called 4A8 VL V97A) VH: EVQLLESGGGLVQPGGSLRLSCAASGFTFSSSTMSWVRQAPGKGLEWVSAISGRGRNTYYADSVKGRFTISRDNSRNTLYLQMNSLRAEDTAVYYCAIQMGYWGQGILVTVSS VL: QSALTQPPSASGSPGQSVTISCIGTSSDVGGYNYVSWYQQHPDKAPKLMIYEVNKRPSGVPDRFSGSKSGNTASLTVSGLQAEDEADYYCSSYAGNNNFGAFGGGTKLTVLG : 1.7
BKO-4A8 variant VL R54Q (antibody, human IgG4 S228P, lambda, V domains shown, IgG4 S228P, lambda; parental heavy chain; also called 4A8 VL R54Q) VH: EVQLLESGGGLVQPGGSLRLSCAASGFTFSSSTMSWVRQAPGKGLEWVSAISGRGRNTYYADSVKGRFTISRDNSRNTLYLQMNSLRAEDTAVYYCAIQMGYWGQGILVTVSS VL: QSALTQPPSASGSPGQSVTISCIGTSSDVGGYNYVSWYQQHPDKAPKLMIYEVNKQPSGVPDRFSGSKSGNTASLTVSGLQAEDEADYYCSSYAGNNNFGVFGGGTKLTVLG : 1.6

Supply measured Fold change in binding relative to BKO-4A8 of BKO-4A8 variant VL N95aY (antibody, human IgG4 S228P, lambda, V domains shown, IgG4 S228P, lambda; parental heavy chain; also called 4A8 VL N95aY) VH: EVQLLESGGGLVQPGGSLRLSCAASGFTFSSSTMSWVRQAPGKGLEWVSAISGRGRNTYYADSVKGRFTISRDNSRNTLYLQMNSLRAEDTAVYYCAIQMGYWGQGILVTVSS VL: QSALTQPPSASGSPGQSVTISCIGTSSDVGGYNYVSWYQQHPDKAPKLMIYEVNKRPSGVPDRFSGSKSGNTASLTVSGLQAEDEADYYCSSYAGNNYFGVFGGGTKLTVLG in your reply. 1.7

Data credit: patent US20240301076A1
